# system tested: NaV1.1 (Homo sapiens (Human))
# assay summary: Sodium Influx Assay (Flux), NaV1.1
# Format: cell-based
# experimental conditions: Trex HEK293 cells, ANG2 dye; arithmetic mean

compound	unit string	IC50
C=Cc1c(O[C@H]2CCN(Cc3ccccc3)C2)cc(F)c(S(=O)(=O)Nc2cscn2)c1F [Example 275, 2,2,2-trifluoroacetate]	µM	29.7
CN(c1cc(F)c(S(=O)(=O)Nc2cscn2)cc1Cl)[C@H]1CCN(Cc2cccc(C(F)F)n2)C1	µM	26.7
Cc1cc(S(=O)(=O)Nc2cscn2)c(F)cc1N(C)[C@H]1CCN(Cc2nc(C(F)(F)F)cs2)C1	µM	7.21
CC1(Oc2ccc(S(=O)(=O)Nc3nccs3)cc2Cl)CCN(Cc2ccccc2)CC1	µM	4.96
CN(c1cc(F)c(S(=O)(=O)Nc2cscn2)cc1Cl)[C@H]1CCN(Cc2cccc(Cl)c2)C1	µM	4.41
CN(c1cc(F)c(S(=O)(=O)Nc2cscn2)cc1Cl)[C@H]1CCN(Cc2cccc(F)c2F)C1	µM	16.1
Cc1cccc(CN2CC[C@@H](Nc3cc(F)c(S(=O)(=O)Nc4nccs4)cc3Cl)C2)c1	µM	1.59

----------
# system tested: NaV1.5 (Homo sapiens (Human))
# Sequence (Q14524 other isoform, or with tags, fused parts or gaps): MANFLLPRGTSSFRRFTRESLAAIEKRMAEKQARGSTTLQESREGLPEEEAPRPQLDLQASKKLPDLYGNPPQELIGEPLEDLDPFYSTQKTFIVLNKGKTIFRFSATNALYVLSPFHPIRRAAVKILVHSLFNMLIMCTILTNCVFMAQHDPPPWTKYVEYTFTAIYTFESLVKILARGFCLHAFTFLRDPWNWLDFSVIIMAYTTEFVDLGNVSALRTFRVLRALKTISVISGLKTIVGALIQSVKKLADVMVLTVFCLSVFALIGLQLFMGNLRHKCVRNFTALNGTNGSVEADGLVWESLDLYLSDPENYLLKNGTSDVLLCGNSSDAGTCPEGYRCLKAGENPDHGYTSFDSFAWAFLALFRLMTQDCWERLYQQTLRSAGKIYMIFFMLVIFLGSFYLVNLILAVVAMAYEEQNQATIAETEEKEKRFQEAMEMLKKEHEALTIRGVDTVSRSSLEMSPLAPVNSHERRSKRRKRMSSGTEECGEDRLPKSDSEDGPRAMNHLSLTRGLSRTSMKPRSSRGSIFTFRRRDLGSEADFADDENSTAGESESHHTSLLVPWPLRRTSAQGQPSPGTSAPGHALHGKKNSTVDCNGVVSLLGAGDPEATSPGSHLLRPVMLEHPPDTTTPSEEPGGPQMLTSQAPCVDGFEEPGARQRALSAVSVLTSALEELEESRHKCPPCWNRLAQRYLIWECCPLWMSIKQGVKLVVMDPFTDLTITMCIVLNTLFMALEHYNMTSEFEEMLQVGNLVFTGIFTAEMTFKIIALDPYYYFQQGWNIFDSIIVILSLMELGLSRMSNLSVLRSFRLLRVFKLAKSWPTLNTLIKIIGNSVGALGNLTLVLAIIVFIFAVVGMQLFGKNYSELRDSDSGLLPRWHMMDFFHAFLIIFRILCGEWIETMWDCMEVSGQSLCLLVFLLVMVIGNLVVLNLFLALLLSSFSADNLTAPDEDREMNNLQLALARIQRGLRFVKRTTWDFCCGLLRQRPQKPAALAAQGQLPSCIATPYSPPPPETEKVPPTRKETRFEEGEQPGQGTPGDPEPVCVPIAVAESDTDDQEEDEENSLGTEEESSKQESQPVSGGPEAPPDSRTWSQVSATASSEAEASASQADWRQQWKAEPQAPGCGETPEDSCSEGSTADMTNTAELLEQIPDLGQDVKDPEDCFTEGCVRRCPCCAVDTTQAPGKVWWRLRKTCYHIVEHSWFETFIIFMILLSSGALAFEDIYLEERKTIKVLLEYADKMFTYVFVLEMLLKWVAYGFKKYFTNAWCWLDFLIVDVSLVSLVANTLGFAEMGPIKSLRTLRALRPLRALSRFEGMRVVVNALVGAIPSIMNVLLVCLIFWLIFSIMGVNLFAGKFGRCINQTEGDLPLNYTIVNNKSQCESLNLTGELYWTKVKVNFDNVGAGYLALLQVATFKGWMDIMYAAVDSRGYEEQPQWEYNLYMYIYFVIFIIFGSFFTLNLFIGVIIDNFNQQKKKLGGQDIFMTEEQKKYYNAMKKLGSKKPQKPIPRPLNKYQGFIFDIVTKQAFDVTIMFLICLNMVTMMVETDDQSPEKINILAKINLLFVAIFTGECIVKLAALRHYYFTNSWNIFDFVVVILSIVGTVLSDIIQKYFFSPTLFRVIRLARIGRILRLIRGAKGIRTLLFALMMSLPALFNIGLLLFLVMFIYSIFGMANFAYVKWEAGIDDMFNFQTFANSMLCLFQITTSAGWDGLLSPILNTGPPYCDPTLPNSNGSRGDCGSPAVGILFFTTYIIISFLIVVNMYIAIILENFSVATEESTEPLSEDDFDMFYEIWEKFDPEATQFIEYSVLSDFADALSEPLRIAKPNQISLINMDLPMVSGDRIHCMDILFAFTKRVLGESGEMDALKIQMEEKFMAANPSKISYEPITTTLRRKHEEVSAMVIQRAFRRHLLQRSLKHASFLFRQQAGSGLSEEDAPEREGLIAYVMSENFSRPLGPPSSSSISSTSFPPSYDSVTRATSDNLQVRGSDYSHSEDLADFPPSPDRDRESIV
# assay summary: Sodium Influx Assay (Flux), NaV1.5
# experimental conditions: read-out: Flux NaV1.5 IC50; Trex HEK293 cells, ANG2 dye; arithmetic mean
Where a name gives a salt, the structure may show the parent alone.
Reported IC50 values follow for various compounds

compound	IC50
CN(c1cc(F)c(S(=O)(=O)Nc2cscn2)cc1Cl)[C@H]1CCN(Cc2ccccc2)C1 [Example 38, 2,2,2-trifluoroacetate]	26.3 µM
C[C@H](c1ccccc1)N1CCC(Oc2cc(F)c(S(=O)(=O)Nc3cscn3)c(F)c2Cl)CC1 [Example 283, 2,2,2-trifluoroacetate formate]	> 30 µM
O=S(=O)(Nc1ncns1)c1ccc(O[C@H]2CCN(Cc3ccccc3)C2)c(Cl)c1 [Example 97, 2,2,2-trifluoroacetate]	> 30 µM

----------
# system tested: NaV1.1 (Homo sapiens (Human))
# assay summary: Sodium Influx Assay (Flux), NaV1.1
# Assay type: cell-based
# experimental conditions: Trex HEK293 cells, ANG2 dye; arithmetic mean
pIC50: −log10 of the molar value. Counter-ions that a name gives are not always drawn.
Reported pIC50 values follow for various compounds

compound	comparative sign	pIC50
C[C@H](c1ccccc1)N1CCC(Oc2cc(F)c(S(=O)(=O)Nc3cscn3)cc2Cl)CC1 [Example 222, 2,2,2-trifluoroacetate]	=	4.55
O=S(=O)(Nc1nccs1)c1ccc(NC2CN(Cc3ccccc3)C2)c(Cl)c1 [Example 50, 2,2,2-trifluoroacetate]	=	5.38
CN(c1ccc(S(=O)(=O)Nc2ncns2)cc1Cl)[C@H]1CCN(Cc2cc(Cl)ccc2F)C1 [Example 33, 2,2,2-trifluoroacetate]	=	5.29
O=S(=O)(Nc1nccs1)c1ccc(OC2CCN(CCc3ccccc3)CC2)c(Cl)c1	=	5.16
CN(c1cc(F)c(S(=O)(=O)Nc2cscn2)cc1Cl)[C@H]1CCN(Cc2cccn2C)C1	<	4.52
O=S(=O)(Nc1ncns1)c1ccc(N[C@H]2CCN(Cc3ccccc3)C2)c(Cl)c1 [Example 67, 2,2,2-trifluoroacetate]	<	4.52
O=S(=O)(Nc1nccs1)c1cc(Cl)c(N[C@H]2CCN(Cc3ccccc3)C2)cc1F	=	5.22
Cc1cccc(CN2CCC(Oc3ccc(S(=O)(=O)Nc4nccs4)cc3Cl)CC2)n1	<	4.52
CN(c1cc(F)c(S(=O)(=O)Nc2cscn2)cc1Cl)[C@H]1CCN(CCc2ccccc2)C1 [Example 179, formate]	=	5.16
Cc1cc(CN2CC[C@H](N(C)c3cc(F)c(S(=O)(=O)Nc4cscn4)cc3Cl)C2)ccc1F	=	5.30
CN(c1cc(F)c(S(=O)(=O)Nc2cscn2)cc1Cl)[C@H]1CCN(Cc2cccc(Br)n2)C1	=	4.89
CN(c1cc(F)c(S(=O)(=O)Nc2cscn2)cc1Cl)[C@H]1CCN(Cc2ccc(Br)cc2)C1	=	5.34
CC1(C)CNCCC1Oc1ccc(S(=O)(=O)Nc2ncns2)cc1Cl (stereo not drawn) [Example 1, 2,2,2-trifluoroacetate]	<	4.52
C[C@@H](c1ccccc1)N1CCC(Oc2ccc(S(=O)(=O)Nc3ncns3)cc2Cl)CC1 [Example 221, 2,2,2-trifluoroacetate]	=	4.97
CC1(Oc2ccc(S(=O)(=O)Nc3nccs3)cc2Cl)CCN(Cc2cccc(C(F)F)c2)CC1	=	5.50

----------
# system tested: UniProt P35498
# assay summary: Sodium Influx Assay (Flux), NaV1.1
# Type: cell-based
# experimental conditions: Trex HEK293 cells, ANG2 dye; arithmetic mean
Structures can show the parent of a compound that is named as a salt.
Group membership follows IC50 per the scheme low class (below 5 µM), middle class (5 µM to below 10 µM), high class (10 µM or more)

compound	classification
CC1(C)CN(Cc2ccccc2)CCC1Oc1ccc(S(=O)(=O)Nc2ncns2)cc1Cl (stereo not shown) [Example 2, 2,2,2-trifluoroacetate]	high class
CN(c1ccc(S(=O)(=O)Nc2nccs2)cc1Cl)[C@H]1CCN(Cc2cccc(Cl)c2)C1	low class
Cc1cccc(CN2CC[C@H](N(C)c3cc(F)c(S(=O)(=O)Nc4ncns4)c(F)c3Cl)C2)n1 [Example 297, 2,2,2-trifluoroacetate]	high class
Cc1cc(S(=O)(=O)Nc2cscn2)ccc1N(C)[C@H]1CCN(Cc2cc(F)ccc2F)C1 [Example 285, 2,2,2-trifluoroacetate]	low class
CN(c1cc(F)c(S(=O)(=O)Nc2cscn2)cc1Cl)[C@H]1CCN(CCCc2ccccc2)C1	low class
Cc1c(N(C)[C@H]2CCN(Cc3ccccc3)C2)cc(F)c(S(=O)(=O)Nc2cscn2)c1F [Example 103, 2,2,2-trifluoroacetate]	high class
O=S(=O)(Nc1ncns1)c1ccc(N[C@@H]2CCN(Cc3ccccc3)C2)c(Cl)c1 [Example 66, 2,2,2-trifluoroacetate]	middle class
Cc1cc(S(=O)(=O)Nc2cscn2)c(F)cc1N(C)[C@H]1CCN(Cc2csc(C(C)C)n2)C1 [Example 107, 2,2,2-trifluoroacetate]	low class
Cc1cc(S(=O)(=O)Nc2cscn2)c(F)cc1N(C)[C@H]1CCN(Cc2ccccc2F)C1	high class
O=S(=O)(Nc1nccs1)c1ccc(O[C@H]2C[C@H]3CC[C@@H](C2)N3Cc2ccccc2)c(Cl)c1	middle class
O=S(=O)(Nc1ncns1)c1ccc(NC2CCN(Cc3ccccc3)CC2)c(Cl)c1 [Example 46, 2,2,2-trifluoroacetate]	low class
CCN(c1cc(F)c(S(=O)(=O)Nc2cscn2)cc1Cl)[C@H]1CCN(Cc2ccccc2)C1	low class
C[C@H](c1ccccc1)N1CCC(Oc2ccc(S(=O)(=O)Nc3cscn3)c(F)c2F)CC1 [Example 313, formate]	high class
Cc1cccc(CN2CC[C@H](N(C)c3ccc(S(=O)(=O)Nc4ncns4)cc3Cl)C2)c1	high class
O=S(=O)(Nc1nccs1)c1ccc(OC2CCN(Cc3cccnc3)CC2)c(Cl)c1	high class
O=S(=O)(Nc1cscn1)c1cc(Cl)c(OC2CCN(Cc3ccccc3)CC2)cc1F [Example 238, 2,2,2-trifluoroacetate]	high class
C[C@H](c1ccccc1)N1CCC(Oc2cc(F)c(S(=O)(=O)Nc3cscn3)c(F)c2Cl)CC1 [Example 283, 2,2,2-trifluoroacetate formate]	high class
O=S(=O)(Nc1nccs1)c1cc(Cl)c(OC2CCN(Cc3ccccc3)CC2)cc1F [Example 47, 2,2,2-trifluoroacetate]	high class
O=S(=O)(Nc1cscn1)c1c(F)cc(OC2CCN(Cc3ccccc3)CC2)c(Cl)c1F [Example 105, formate]	high class
Cc1ccc(CN2CC[C@H](N(C)c3cc(F)c(S(=O)(=O)Nc4cscn4)cc3Cl)C2)s1 [Example 189, formate]	middle class
O=S(=O)(Nc1nccs1)c1ccc(OC2CN(Cc3ccccc3)C2)c(Cl)c1	high class
Cc1cc(C)cc(CN2CCC(Oc3ccc(S(=O)(=O)Nc4nccs4)cc3Cl)CC2)c1	high class
Cc1cccc(CN2CC[C@H](N(C)c3cc(F)c(S(=O)(=O)Nc4cscn4)cc3Cl)C2)c1F	middle class

----------
# system tested: NaV1.6 (Homo sapiens (Human), UniProt Q9UQD0)
# Sequence (Q9UQD0 whole entry): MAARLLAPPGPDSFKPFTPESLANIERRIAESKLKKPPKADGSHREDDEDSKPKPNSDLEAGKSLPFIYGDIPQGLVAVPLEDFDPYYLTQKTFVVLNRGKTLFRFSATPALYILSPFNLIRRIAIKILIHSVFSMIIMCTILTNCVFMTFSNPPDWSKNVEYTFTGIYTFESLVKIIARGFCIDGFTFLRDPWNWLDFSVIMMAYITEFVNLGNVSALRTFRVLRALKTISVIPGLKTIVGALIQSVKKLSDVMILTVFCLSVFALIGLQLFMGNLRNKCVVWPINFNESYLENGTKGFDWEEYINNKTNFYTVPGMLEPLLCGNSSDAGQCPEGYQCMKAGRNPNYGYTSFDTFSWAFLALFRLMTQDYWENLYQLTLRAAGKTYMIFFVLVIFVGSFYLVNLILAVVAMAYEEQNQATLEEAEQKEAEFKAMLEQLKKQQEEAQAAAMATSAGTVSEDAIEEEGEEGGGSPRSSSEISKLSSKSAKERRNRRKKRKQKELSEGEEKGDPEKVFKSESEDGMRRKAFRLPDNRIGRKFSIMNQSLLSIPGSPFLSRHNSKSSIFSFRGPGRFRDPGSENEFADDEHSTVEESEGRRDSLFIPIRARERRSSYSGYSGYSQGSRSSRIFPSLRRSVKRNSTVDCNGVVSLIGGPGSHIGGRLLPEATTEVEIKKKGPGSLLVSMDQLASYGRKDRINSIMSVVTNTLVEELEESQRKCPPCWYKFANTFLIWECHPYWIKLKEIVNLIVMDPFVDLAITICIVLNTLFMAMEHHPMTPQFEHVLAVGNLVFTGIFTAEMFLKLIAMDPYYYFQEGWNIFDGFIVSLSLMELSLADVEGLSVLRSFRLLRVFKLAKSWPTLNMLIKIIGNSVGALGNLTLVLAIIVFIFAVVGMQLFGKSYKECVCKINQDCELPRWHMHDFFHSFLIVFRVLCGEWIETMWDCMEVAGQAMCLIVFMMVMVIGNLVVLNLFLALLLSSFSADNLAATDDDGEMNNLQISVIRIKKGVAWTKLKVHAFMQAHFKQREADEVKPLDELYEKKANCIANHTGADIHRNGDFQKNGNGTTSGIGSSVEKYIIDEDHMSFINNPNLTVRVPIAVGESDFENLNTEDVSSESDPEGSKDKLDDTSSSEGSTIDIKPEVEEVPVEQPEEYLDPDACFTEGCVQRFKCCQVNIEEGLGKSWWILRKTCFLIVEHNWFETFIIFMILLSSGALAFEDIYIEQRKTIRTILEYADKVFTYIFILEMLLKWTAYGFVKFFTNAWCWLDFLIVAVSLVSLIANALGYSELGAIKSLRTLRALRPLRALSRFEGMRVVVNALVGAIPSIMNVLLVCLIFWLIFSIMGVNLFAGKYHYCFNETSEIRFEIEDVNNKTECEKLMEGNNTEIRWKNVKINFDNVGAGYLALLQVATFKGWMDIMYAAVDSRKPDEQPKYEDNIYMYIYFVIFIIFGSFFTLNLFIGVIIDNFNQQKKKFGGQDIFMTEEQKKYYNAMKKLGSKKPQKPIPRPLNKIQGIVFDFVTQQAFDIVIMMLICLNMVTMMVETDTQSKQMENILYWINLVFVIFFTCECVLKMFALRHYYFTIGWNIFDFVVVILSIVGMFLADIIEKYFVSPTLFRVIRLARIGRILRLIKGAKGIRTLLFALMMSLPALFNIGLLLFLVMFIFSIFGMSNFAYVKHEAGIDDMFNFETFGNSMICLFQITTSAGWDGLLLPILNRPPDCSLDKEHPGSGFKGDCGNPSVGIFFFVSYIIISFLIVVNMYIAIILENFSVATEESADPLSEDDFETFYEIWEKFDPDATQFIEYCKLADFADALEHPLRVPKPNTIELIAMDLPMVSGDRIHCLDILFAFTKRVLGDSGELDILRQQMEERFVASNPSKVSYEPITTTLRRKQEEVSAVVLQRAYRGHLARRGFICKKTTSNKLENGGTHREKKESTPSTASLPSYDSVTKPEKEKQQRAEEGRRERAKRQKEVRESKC
# assay summary: Electrophysiological Assay (EP), patch voltage clamp, NaV1.6
# Assay type: cell-based
# experimental conditions: HEK-293 cells, whole-cell patch clamp, inactivated state; arithmetic mean
Counter-ions that a name gives are not always drawn.
Just a reminder that ties go to not fulfilled: only IC50 strictly below 200 nM counts as fulfilled.

molecule	classification
CN(c1cc(F)c(S(=O)(=O)Nc2cscn2)cc1Cl)[C@H]1CCN([C@H]2CCc3ccccc32)C1 [Example 249, 2,2,2-trifluoroacetate]	fulfilled
O=S(=O)(Nc1nccs1)c1ccc(O[C@@H]2C[C@H]3CC[C@@H](C2)N3Cc2ccccc2)c(Cl)c1 [Example 16]	fulfilled
CN(c1ccc(S(=O)(=O)Nc2ncns2)cc1Cl)[C@H]1CCN(Cc2cccc(C(F)F)c2)C1 [Example 31]	fulfilled
CC1(C)CN(Cc2ccccc2)CCC1Oc1ccc(S(=O)(=O)Nc2ncns2)cc1Cl (centres unmarked) [Example 2, 2,2,2-trifluoroacetate]	not fulfilled
CN(c1ccc(S(=O)(=O)Nc2ncns2)cc1Cl)[C@H]1CCN(Cc2cc(Cl)ccc2F)C1 [Example 33, 2,2,2-trifluoroacetate]	fulfilled
CN(c1ccc(S(=O)(=O)Nc2nccs2)cc1Cl)[C@H]1CCN(Cc2cccc(C(F)F)c2)C1 [Example 28]	fulfilled
Cc1c(N(C)[C@H]2CCN(Cc3ccccc3)C2)cc(F)c(S(=O)(=O)Nc2cscn2)c1F [Example 103, 2,2,2-trifluoroacetate]	fulfilled
O=S(=O)(Nc1ncns1)c1ccc(N[C@H]2CCN(Cc3ccccc3)C2)c(Cl)c1 [Example 67, 2,2,2-trifluoroacetate]	not fulfilled
CN(c1ccc(S(=O)(=O)Nc2cscn2)cc1Cl)[C@H]1CCN(Cc2cccc(C(F)F)c2)C1 [Example 253, formate]	not fulfilled
Cc1cc(C)cc(CN2CC[C@H](Oc3ccc(S(=O)(=O)Nc4ncns4)cc3Cl)C2)c1 [Example 99, 2,2,2-trifluoroacetate]	not fulfilled
Cc1cccc(CN2CC[C@H](N(C)c3cc(F)c(S(=O)(=O)Nc4ncns4)c(F)c3Cl)C2)n1 [Example 297, 2,2,2-trifluoroacetate]	fulfilled
CN(c1cc(F)c(S(=O)(=O)Nc2cccc(F)n2)cc1Cl)[C@H]1CCN(C(C)(C)c2ccccc2)C1 [Example 260, 2,2,2-trifluoroacetate]	not fulfilled
Cc1cccc(CN2CCC(Oc3ccc(S(=O)(=O)Nc4nccs4)cc3Cl)CC2)n1 [Example 82]	fulfilled
O=S(=O)(Nc1nccs1)c1cc(Cl)c(O[C@@H]2C[C@H]3CC[C@@H](C2)N3Cc2ccccc2)cc1F [Example 17]	fulfilled

From: patent US10246453B2
